The following compounds were reported with pKi values on 5-hydroxytryptamine receptor 7 (Homo sapiens) in different studies.
Sequence (P34969 whole entry): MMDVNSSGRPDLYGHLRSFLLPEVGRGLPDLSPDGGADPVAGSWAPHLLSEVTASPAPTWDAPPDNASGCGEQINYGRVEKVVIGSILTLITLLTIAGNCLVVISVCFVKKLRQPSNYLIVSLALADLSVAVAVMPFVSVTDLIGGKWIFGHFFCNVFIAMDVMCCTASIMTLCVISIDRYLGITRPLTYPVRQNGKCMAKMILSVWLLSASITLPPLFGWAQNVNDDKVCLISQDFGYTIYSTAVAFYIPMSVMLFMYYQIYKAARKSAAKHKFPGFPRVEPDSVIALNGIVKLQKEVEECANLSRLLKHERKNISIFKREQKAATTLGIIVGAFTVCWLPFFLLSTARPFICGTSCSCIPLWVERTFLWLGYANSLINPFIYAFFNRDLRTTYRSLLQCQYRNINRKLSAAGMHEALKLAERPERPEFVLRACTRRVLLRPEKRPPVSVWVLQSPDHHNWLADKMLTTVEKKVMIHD
pKi: −log10 of the molar value.
Assay Endpoint: pKi

Look over these answered cases.
N#Cc1c[nH]c2c(C(=O)N3CCN(CCc4ccc(F)cc4)CC3)cccc12: 5.62
COc1ccc(NC(=O)c2ccc(-c3ccc(-c4noc(C)n4)cc3C)cc2)cc1OCCN(C)C: 5.96
Fc1ccc(C2CCN(CCCc3c[nH]c4ccc(F)cc34)CC2)c(-c2ccccc2)c1: 7.57
OCc1cc(C(O)CNCCCCCCOCCCCc2ccccc2)ccc1O (centres undefined): 6.59
CCCc1ccc(OCC(O)CN2CCN(c3cccc(Cl)c3)CC2)cc1 (centres undefined): 6.44

A = O=C(O)c1cc(-c2ccc(C3CCNCC3)cc2)c2ccc(-c3ccc(C(F)(F)F)cc3)cc2c1
B = CCCc1ccc(OCC(O)CN2CCN(c3ccccc3)CC2)cc1 (centres undefined)
C = CCC(=O)N1c2ccccc2CC1C(=O)NCCCN1CCN(c2cccc(Cl)c2)CC1 (centres undefined)
D = OC(COc1ccc2c(c1)CCC2)CN1CCN(c2cccc(Cl)c2)CC1 (centres undefined)
Task field, ranking: reported pKi, descending order. Please write the labels in the order that was asked for.
D, C, B, A
(D: 6.55, C: 6.16, B: 5.96, A: 5.48)
